Molecular target: T1, Recombinant human PSGL-1(ECD)-hFc1 (R&D Systems, Cat. 3345-PS) (human, UniProt Q14242 42-305)
T1 construct: Bought; Gln42-Val295 counted on AAC50061; also called PSGL-1-Fc; PSGL-1-hFc1 chimera; not shown: human IgG1 Fc, Pro100-Lys330
T1 sequence: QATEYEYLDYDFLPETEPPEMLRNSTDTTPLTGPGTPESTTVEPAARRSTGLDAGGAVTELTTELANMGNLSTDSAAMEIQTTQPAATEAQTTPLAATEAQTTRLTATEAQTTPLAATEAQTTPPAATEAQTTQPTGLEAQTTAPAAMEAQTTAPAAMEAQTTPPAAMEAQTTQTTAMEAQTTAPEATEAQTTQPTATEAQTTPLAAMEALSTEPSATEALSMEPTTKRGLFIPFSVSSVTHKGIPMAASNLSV
Experiment: blocking ELISA vs P-selectin-Fc
Observable: pIC50
# pIC50: negative log10 of molar concentration; output just the value

Query block: Recorded pIC50 of 10F01 (antibody, IgG4, V domains shown) VH: EVQLVQSGGGLVQPGGSLRLSCAASGFTFSSYAMSWVRQAPGKGLEWVSALRGGDGGTYHADSVKGRFTISGDSSKNTLYLQMNSLRAEDTAVYYCARRMVGAAYAFDIWGQGTMVTVSS VL: LPVLTQPHSVSESPGKTVTISCTRSSGSIADNFVQWYRQRPGSAPTTVIYEGDQRPSGVPGRFSGSIDSSSNSASLTISGLQTDDEADYYCQSFDSYNRRTHVVFGGGTKLTVL , please.
Result block: 8.40

Query block: Can you look up the measured pIC50 of 43B6 (antibody, V domains shown, Control anti-PSGL-1 mAb, recombinant; only variable domains given; also called 43B3) VH: EVQLQQSGPDLVKPGALVKISCKASGYSFTAYYIHWVKQSHGKSLEWIGRVNPNTGGTSYNPKFKGKAILNVDKSSSTAYMELRSLTSEDSAVYYCARSGSPYYRYDDWGQGTTLTVSS VL: ENVLTQSPAIMSASPGEKVTMTCRASSTVNSTYLHWFQQKSGASPKLWIYGSSNLASGVPARFSGSGSGTSYSLTISSVEAEDAATYYCQQYSGYPLTFGAGTTLELK for me?
Result block: 8.10

Query block: Entry under review: 03D07 (antibody, IgG4, V domains shown) VH: EVKLLESGGGLVQPGGSLRLSCAASGFTFSSYALSWVRQAPGKGLEWVSAISGSGGNTYYADSVKGRFTISRDNSKNTLYLQMNSLRAEDTAVYYCAKVVGATNYWGQGTLVTVSS VL: DIVMTQTPLSLPVTLGQPASISCRSSQSLVYSDGHTYLSWFHQRPGQSPRRLIYKVSIRDSGVPDRFSGSGSGTDFTLKISRVEAEDVGVYYCMQRLQIPLTFGGGTKVEIK . Reported pIC50?
Result block: 8.30
